# Procedure Summary: Half-life of orally administered Fpn127 in rodents
# Condition Set: in vivo, po
Readout Label: half-life

Query: Field request: half-life | item: O=C(NCc1ncccc1F)c1coc(CCNCCc2nc3ccccc3[nH]2)n1 [Fpn127]
Reply: ~2 h

The values you see were collected from patent US12533348B2.
